- systemUnderTest: MMP-1 (Homo sapiens, UniProt P03956)
- Sequence (P03956 100-469): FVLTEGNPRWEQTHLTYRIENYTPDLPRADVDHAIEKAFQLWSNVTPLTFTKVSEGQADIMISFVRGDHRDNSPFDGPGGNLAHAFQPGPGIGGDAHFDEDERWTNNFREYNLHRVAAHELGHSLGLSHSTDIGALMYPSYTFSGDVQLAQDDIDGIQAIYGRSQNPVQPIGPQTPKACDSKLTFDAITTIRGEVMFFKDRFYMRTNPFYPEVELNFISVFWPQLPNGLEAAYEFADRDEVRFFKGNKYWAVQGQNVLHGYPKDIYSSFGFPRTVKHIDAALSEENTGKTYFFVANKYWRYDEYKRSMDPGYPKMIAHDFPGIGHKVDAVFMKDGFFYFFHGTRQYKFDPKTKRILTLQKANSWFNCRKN
propertyName: Ki
Give your result as the value with the unit written after it.

CNC(=O)C(CCC(=O)NCCOCCOCCOCCOCCOCCOCCOCCOCCOCCOCCOCCOCCC(=O)NCc1ccc(I)cc1)NC(=O)CC(CC(C)C)C(=O)NO (stereo not drawn) | 23.9 nM

Ki of CC(C)CC(CC(=O)NC(Cc1c[nH]c2ccccc12)C(=O)NCCOCCOCCOCCOCCOCCOCCOCCOCCOCCOCCOCCOCCC(=O)NCc1ccc(I)cc1)C(=O)NO (stereo not drawn) , assay on MMP-1 (Homo sapiens, UniProt P03956), is 2.68 nM

Ki of CC(C)CC(CC(=O)NO)C(=O)NC(Cc1c[nH]c2ccccc12)C(=O)NCCOCCOCCOCCOCCOCCOCCOCCOCCOCCOCCOCCOCCC(=O)NCc1ccc(I)cc1 (stereo not drawn) , assay on MMP-1 (Homo sapiens, UniProt P03956), is 18 nM

Entry source: patent US20080279769A1
